Experiment: Human microsome stability assay
Assay type: in vitro ADME
Conditions: 1 μM test compound, 0.5 mg/mL liver microsomal protein, 37° C., up to 30 minutes; 6.2 = detection limit
Record form. Attribute: Clearance of Human microsome. Fill in for each entry.
Give bare numbers, in mL/min/kg.

Worked cases, Clearance of Human microsome given:
[
  {
    "COMPOUND": "C[C@@H]1CN(c2ccc(C#N)c3ncccc23)C[C@H](CN2CC(n3ncc4c3C[C@H](C)NC4)C2)O1 [Example 18]",
    "READOUT NAME": "Clearance of Human microsome",
    "UNIT OF MEASURE": "mL/min/kg",
    "ASSAY VALUE": 7.0
  },
  {
    "COMPOUND": "Cc1nn(C2CN(C[C@H]3CN(c4ccc(C#N)c5ncccc45)C[C@@H](C)O3)C2)c2c1CCNC2 [Example 42]",
    "READOUT NAME": "Clearance of Human microsome",
    "UNIT OF MEASURE": "mL/min/kg",
    "ASSAY VALUE": 7.1
  }
]

Exam item: Request the reported Clearance of Human microsome associated with C[C@@H]1Cc2nn(C3CN(C[C@H]4CN(c5ccc(C#N)c6ncccc56)C[C@@H](C)O4)C3)cc2CN1 [Example 17]
Marked response: 6.2
